- testDetails: in vivo
- assayConditions: dog, iv, 5 mg/kg
- Description: Clearance in dog at 5 mg/kg, iv
quantityName: clearance
Just so you know, I need the unit written after the number.

Given the entry CCOc1ccccc1-c1ccc(N2CCN(C(=O)C3(C(F)(F)F)CCC3)C[C@H]2CC)c(C(=O)N[C@@H]2CN3CCC2CC3)n1 [ATUMELNANT] , report its measured clearance.
14.2 mL/min/kg

----------
- testDetails: in vivo
- assayConditions: Sprague-Dawley, rat, plasma, po, 3 mg/kg
- Description: Drug concentration in Sprague-Dawley rat plasma at 3 mg/kg, po administered as single dose and stimulated with ACTH for 4 hrs measured after 0.5 hrs
quantityName: concentration at 0.5 h (ng/mL)
I only need the number, in ng/mL, no unit after it.

Given the entry CCOc1ccccc1-c1ccc(N2CCN(C(=O)C3(C(F)(F)F)CCC3)C[C@H]2CC)c(C(=O)N[C@@H]2CN3CCC2CC3)n1 [ATUMELNANT] , report its measured concentration at 0.5 h.
127

----------
- testDetails: in vivo
- assayConditions: rat, po, 10 mg/kg
quantityName: bioavailability (%)
I only need the number, in %, no unit after it.

[
  {
    "smi": "CCOc1ncccc1-c1ccc(N2CCN(C(=O)c3ccc(Cl)cc3C(F)(F)F)C[C@H]2CC)c(C(=O)N[C@@H]2CCN(C)C2)n1",
    "bioavailability / %": 17
  }
]

Next, consider the following compound.
Given the entry CCOc1ncccc1-c1ccc(N2CCN(C(=O)c3ccc(Cl)cc3C(F)(F)F)C[C@H]2CC)c(C(=O)NCCN(C)C)n1 , report its measured bioavailability.
8

----------
- testDetails: in vivo
- assayConditions: Sprague-Dawley, rat, plasma, po, 30 mg/kg
- Description: Drug concentration in Sprague-Dawley rat plasma at 30 mg/kg, po administered as single dose and stimulated with ACTH for 48 hrs measured after 0.5 hrs
quantityName: concentration at 0.5 h (ng/mL)
I only need the number, in ng/mL, no unit after it.

Given the entry CCOc1ccccc1-c1ccc(N2CCN(C(=O)C3(C(F)(F)F)CCC3)C[C@H]2CC)c(C(=O)N[C@@H]2CN3CCC2CC3)n1 [ATUMELNANT] , report its measured concentration at 0.5 h.
0.88

----------
- testDetails: in vivo
- assayConditions: rat, iv, 5 mg/kg
- Description: Clearance in rat at 5 mg/kg, iv
quantityName: clearance

Given the entry CCOc1ccccc1-c1ccc(N2CCN(C(=O)C3(C(F)(F)F)CCC3)C[C@H]2CC)c(C(=O)N[C@@H]2CN3CCC2CC3)n1 , report its measured clearance.
24.5 mL/min/kg

----------
- testDetails: in vitro
- assayConditions: human, plasma
- Description: Plasma protein binding in human at 1 uM
quantityName: fraction unbound at 1 µM
Give the value as a plain number.

Given the entry CCOc1ccccc1-c1ccc(N2CCN(C(=O)C3(C(F)(F)F)CCC3)C[C@H]2CC)c(C(=O)N[C@@H]2CN3CCC2CC3)n1 , report its measured fraction unbound at 1 µM.
0.014

----------
- testDetails: in vivo
- assayConditions: rat, po, 5 mg/kg
- Description: AUClast in rat at 5 mg/kg, po
quantityName: AUC(0-t) (µM·h)
I only need the number, in µM·h, no unit after it.

Given the entry CCOc1ccccc1-c1ccc(N2CCN(C(=O)C3(C(F)(F)F)CCC3)C[C@H]2CC)c(C(=O)N[C@@H]2CN3CCC2CC3)n1 [ATUMELNANT] , report its measured AUC(0-t).
5.2

----------
- testDetails: in vitro
- assayConditions: rat, liver microsomes
- Description: Stability in rat liver microsomes assessed as half life
quantityName: half-life (h)
I only need the number, in h, no unit after it.

Recorded half-life, per entry:
[
  {
    "molecule": "CCOc1ncccc1-c1ccc(N2CCN(C(=O)c3ccc(Cl)cc3C(F)(F)F)C[C@H]2CC)c(C(=O)N[C@@H]2CCNC2)n1",
    "half-life (h)": 5.78
  },
  {
    "molecule": "CCOc1ccccc1-c1ccc(N2CCN(C(=O)C3(C(F)(F)F)CCC3)C[C@H]2CC)c(C(=O)N[C@@H]2CCN(C)C2)n1",
    "half-life (h)": 3.85
  },
  {
    "molecule": "CCOc1ncccc1-c1ccc(N2CCN(C(=O)C34CCC(C(F)(F)F)(CC3)CC4)C[C@H]2CC)c(C(=O)N[C@@H]2CCN(C)C2)n1",
    "half-life (h)": 0.533
  }
]

Next, consider the following molecule.
Given the entry CCOc1ccccc1-c1ccc(N2CCN(C(=O)C3(C(F)(F)F)CCC3)C[C@H]2CC)c(C(=O)N[C@@H]2CN3CCC2CC3)n1 [ATUMELNANT] , report its measured half-life.
3.85
